molecular target: hCX3CR1 (Homo sapiens, UniProt P49238); experiment: Suchi5 assay (HEK/NatClytin/CNG/Suchi5 transiently transfected hCX3CR1, Fluo-8 Ca2+ readout); type: cell-based; design: expressed in transfected cells; stably expresses a Ca2+ sensitive photo-protein; settings: Suchi5 assay, HEK/NatClytin/CNG/Suchi5 transfected with hCX3CR1; read-out: hCX3CR1 agonism EC50
Sequence (P49238 whole entry): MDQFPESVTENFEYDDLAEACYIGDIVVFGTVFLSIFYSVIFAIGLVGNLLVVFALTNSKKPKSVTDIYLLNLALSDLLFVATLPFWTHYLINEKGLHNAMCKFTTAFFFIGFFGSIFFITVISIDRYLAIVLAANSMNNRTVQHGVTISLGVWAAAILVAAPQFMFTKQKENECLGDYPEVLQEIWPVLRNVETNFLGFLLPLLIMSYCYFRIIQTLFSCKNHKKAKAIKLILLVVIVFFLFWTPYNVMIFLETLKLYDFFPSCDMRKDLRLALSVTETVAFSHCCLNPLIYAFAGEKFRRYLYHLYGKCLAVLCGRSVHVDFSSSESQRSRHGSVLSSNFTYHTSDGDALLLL
Cut-off 10 µM on EC50: below means TRUE, at or above means FALSE.

// below: answered molecules
{"columns": ["molecule", "category"],
 "data": [
  ["CC1(C)CN(CC2(CNC(=O)c3cc4c(s3)CCCCCC4)CCC2)CCC1O (stereo not drawn)", "TRUE"],
  ["COC1CCCN(CC(C)(C)CNC(=O)c2cc3c(s2)CCCCCC3)C1 (stereo not drawn)", "FALSE"],
  ["CC1CCCC1(CNC(=O)c1cc2c(s1)CCCCCC2)CN(C)C (single isomer, unassigned) [Example 61]", "TRUE"],
  ["O=C(NCC1(CN2CCC(O)C2)CCC1)c1cc2c(s1)CCCCCC2 (stereo not drawn)", "TRUE"],
  ["O=C(NCC1(CN2CCCC2)CCCC1)c1cc2c(s1)CCCCCC2", "FALSE"]
]}

Does the reported EC50 of the following molecule sit strictly below 10 µM? CN(C)CC1(CNC(=O)c2cc3c(s2)CCCCCC3)CC(O)C1 (stereo not drawn)
TRUE

Does the reported EC50 of the following molecule sit strictly below 10 µM? CC(C)(CNC(=O)c1cc2c(s1)CCCCCC2)CN1CCC(O)C(C)(C)C1 (stereo not drawn)
FALSE

Does the reported EC50 of the following molecule sit strictly below 10 µM? CN(C)CC(C)(C)CNC(=O)c1cc2c(s1)CCCCCC2
TRUE

Does the reported EC50 of the following molecule sit strictly below 10 µM? CC(C)(CNC(=O)c1cc2c(s1)CCCCCC2)CN1CCCCC1
TRUE

Does the reported EC50 of the following molecule sit strictly below 10 µM? CC1CCCC1(CNC(=O)c1cc2c(s1)CCCCCC2)CN1CCCC1 (stereo not drawn)
FALSE

Does the reported EC50 of the following molecule sit strictly below 10 µM? O=C(NCC1(CN2CCCC2)CCC1)c1cc2c(s1)CCCCCC2
TRUE

Does the reported EC50 of the following molecule sit strictly below 10 µM? COC1CCCN(CC2(CNC(=O)c3cc4c(s3)CCCCCC4)CCC2)C1 (stereo not drawn)
TRUE

Does the reported EC50 of the following molecule sit strictly below 10 µM? COC1CCN(CC2(CNC(=O)c3cc4c(s3)CCCCCC4)CCC2)CC1
TRUE

----------
# reported EC50; entries follow
Target: mCX3CR1 (Mus musculus)
Construct: stably expresses a Ca2+ sensitive photo-protein
Sequence (Q9Z0D9 1-354): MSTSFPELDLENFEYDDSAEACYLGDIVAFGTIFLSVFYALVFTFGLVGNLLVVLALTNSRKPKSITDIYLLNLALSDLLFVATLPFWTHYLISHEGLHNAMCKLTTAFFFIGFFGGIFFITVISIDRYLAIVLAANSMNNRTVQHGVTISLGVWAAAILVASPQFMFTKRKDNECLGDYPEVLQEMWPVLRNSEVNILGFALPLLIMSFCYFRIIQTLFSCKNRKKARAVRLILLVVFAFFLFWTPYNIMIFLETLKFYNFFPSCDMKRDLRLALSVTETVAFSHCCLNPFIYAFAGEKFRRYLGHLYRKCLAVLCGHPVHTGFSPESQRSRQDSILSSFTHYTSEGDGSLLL
Experiment: Ga16 assay, CX3CR1 agonism, Ca2+ sensitive photo-protein readout (FLIPRTETRA)
Conditions: mouse CX3CR1 cell line
Return type: number; implicit unit µM.

# example entries with known answers
{"columns": ["compound", "assay_system", "observed_result"],
 "data": [
  ["O=C(NCC1(CN2CCCC2)CCC1)c1cc2c(s1)CCCCCCC2", "mCX3CR1 (Mus musculus)", 58.1],
  ["CC(C)(CNC(=O)c1cc2c(s1)CCCCCC2)CN1CCC(C)(O)CC1", "mCX3CR1 (Mus musculus)", 87.1],
  ["CN(C)CC1(CNC(=O)c2cc3c(s2)CCCCCC3)CC(O)C1 (stereo not drawn)", "mCX3CR1 (Mus musculus)", 18.5],
  ["O=C(NCC1(CN2CCC2)CCOCC1)c1cc2c(s1)CCCCCC2", "mCX3CR1 (Mus musculus)", 18]
]}

Entry CC1CCCC1(CNC(=O)c1cc2c(s1)CCCCCC2)CN(C)C (single isomer, unassigned) [Example 60] : reported EC50 = ?
89.8

Entry O=C(NCC1(CN2CCC(O)CC2)CCC1)c1cc2c(s1)CCCCCC2 : reported EC50 = ?
9.4

Entry CCC(CC)(CNC(=O)c1cc2c(s1)CCCCCC2)CN(C)C : reported EC50 = ?
17.1

----------
molecular target: mCX3CR1 (Mus musculus); construct: stably expresses a Ca2+ sensitive photo-protein; assay: Ga16 assay, CX3CR1 agonism, Ca2+ sensitive photo-protein readout (FLIPRTETRA); settings: mouse CX3CR1 cell line
parameter: pEC50
For clarity, pEC50 is expressed as the negative log10 of concentration in mol/L.

# example entries with known answers
{"columns": ["compound", "pEC50"],
 "data": [
  ["CCCN(C)CC1(CNC(=O)c2cc3c(s2)CCCCCC3)CCCC1", 4.74],
  ["CN(C)CC1(CNC(=O)c2cc3c(s2)CCCCCC3)CCCCC1", 4.82],
  ["O=C(NCC1(CN2CCCC2)Cc2ccccc2C1)c1cc2c(s1)CCCCCC2", 4.81]
]}

Entry CN(C)CC1(CNC(=O)c2cc3c(s2)CCCCCC3)CCOCC1 : reported pEC50 = ?
4.51

Entry COC1(C)CCN(CC2(CNC(=O)c3cc4c(s3)CCCCCC4)CCCC2)CC1 : reported pEC50 = ?
4.31

Entry O=C(NCC1(CN2CCCC2)CCOCC1)c1cc2c(s1)CCCCCC2 : reported pEC50 = ?
4.68

----------
target: mCX3CR1 (Mus musculus); construct: stably expresses a Ca2+ sensitive photo-protein; experiment: Ga16 assay, CX3CR1 agonism, Ca2+ sensitive photo-protein readout (FLIPRTETRA); details: mouse CX3CR1 cell line
# reported log10 of EC50; entries follow
// units: µM (pre-log); metric: EC50; scale: log10

# example entries with known answers
{"columns": ["molecule", "parameter", "observed_result"],
 "data": [
  ["O=C(NCC1(CN2CCCC(O)C2)CCC1)c1cc2c(s1)CCCCCC2 (stereo not shown) [Example 65]", "log10 of EC50", 0.96],
  ["CN(CCO)CC1(CNC(=O)c2cc3c(s2)CCCCCC3)CCC1 [Example 30]", "log10 of EC50", 1.23],
  ["CC1CCCC1(CNC(=O)c1cc2c(s1)CCCCCC2)CN1CCCC1 (stereo not shown) [Example 62]", "log10 of EC50", 2.00],
  ["O=C(NCC1(CN2CCC2)CCCC1)c1cc2c(s1)CCCCCC2 [Example 14]", "log10 of EC50", 1.18],
  ["CCN(CC)CC(C)(C)CNC(=O)c1cc2c(s1)CCCCCC2 [Example 16]", "log10 of EC50", 2.01]
]}

Entry O=C(NCC1(CN2CCC(O)C2)CCCC1)c1cc2c(s1)CCCCCC2 (single isomer, unassigned) [Example 64] : reported log10 of EC50 = ?
1.14

Entry CN(C)CC1(CNC(=O)c2cc3c(s2)CCCCCC3)CC(F)(F)C1 [Example 56] : reported log10 of EC50 = ?
1.40

Entry CC(C)OC1CCN(CC2(CNC(=O)c3cc4c(s3)CCCCCC4)CCC2)CC1 [Example 51] : reported log10 of EC50 = ?
1.19

Entry O=C(NCC1(CN2CCCC(O)C2)CCCC1)c1cc2c(s1)CCCCCC2 (stereo not shown) [Example 27] : reported log10 of EC50 = ?
1.10

Entry CN(CCO)CC1(CNC(=O)c2cc3c(s2)CCCCCCC3)CCCC1 [Example 29] : reported log10 of EC50 = ?
1.67

Entry O=C(NCC1(CN2CCC(O)CC2)CCCOC1)c1cc2c(s1)CCCCCC2 (stereo not shown) [Example 45] : reported log10 of EC50 = ?
1.62

Entry O=C(NCC1(CN2CCCC2)CCCOC1)c1cc2c(s1)CCCCCC2 (stereo not shown) [Example 44] : reported log10 of EC50 = ?
1.03

Entry CC1(O)CCCN(CC2(CNC(=O)c3cc4c(s3)CCCCCC4)CCC2)C1 (stereo not shown) [Example 59] : reported log10 of EC50 = ?
0.95

Entry O=C(NCC1(CN2CCC(O)CC2)CCOCC1)c1cc2c(s1)CCCCCC2 [Example 40] : reported log10 of EC50 = ?
1.92
